measurement_description: flow cytometry, normalized trafficking efficiency of WT PMP22
condition_label: glycan lost; control: WT PMP22 in untreated or DMSO-treated HEK293
endpoint_label: localisation_or_trafficking, fold_change

>>> observed("peripheral myelin protein 22 (PMP22): C19 (protein) parent chain: MLLLLLSIIVLHVAVLVLLFVSTIVSQWIVGNGHATDLWQNCSTSSSGNVHHCFSSSPNEWLQSVQATMILSIIFSILSLFLFFCQLFTLTKGGRFYITGIFQILAGLCVMSAAAIYTVRHPEWHLNSDYSYGFAYILAWVAFPLALLSGVIYVILRKRE")
"increases"
>>> observed("peripheral myelin protein 22 (PMP22): STT3B KO (protein) parent chain: MLLLLLSIIVLHVAVLVLLFVSTIVSQWIVGNGHATDLWQNCSTSSSGNVHHCFSSSPNEWLQSVQATMILSIIFSILSLFLFFCQLFTLTKGGRFYITGIFQILAGLCVMSAAAIYTVRHPEWHLNSDYSYGFAYILAWVAFPLALLSGVIYVILRKRE")
"increases"
>>> observed("peripheral myelin protein 22 (PMP22): NGI-1 (protein) parent chain: MLLLLLSIIVLHVAVLVLLFVSTIVSQWIVGNGHATDLWQNCSTSSSGNVHHCFSSSPNEWLQSVQATMILSIIFSILSLFLFFCQLFTLTKGGRFYITGIFQILAGLCVMSAAAIYTVRHPEWHLNSDYSYGFAYILAWVAFPLALLSGVIYVILRKRE")
"increases"
